# target.or.test.system: human cathepsin F (Homo sapiens, UniProt Q9UBX1)
# assay.protocol: Cathepsin F assay (hCat F)
# Format: biochemical
# measurement.setup: Z-Phe-Arg-AMC substrate, pH 5.5, 15 min preincubation; read-out: hCat F (IP (nM))

{"compound": "N#CC1(NC(=O)[C@@H]2CCCC[C@H]2c2nc(Nc3ccc(F)cc3F)sc2-c2ccc(N3CCS(=O)(=O)CC3)cc2)CC1 [Example 181]", "IC50": "3490 nM"}
{"compound": "Cc1nc([C@@H]2CCCC[C@H]2C(=O)NCC#N)c(-c2ccc(C(=O)N3CCOCC3)cc2)s1 [Example 12]", "IC50": "5170 nM"}
{"compound": "N#CC1(NC(=O)[C@@H]2CCC(Cl)(Cl)C[C@H]2c2nc(-c3ccc(F)cn3)sc2-c2ccc(N3CCS(=O)(=O)CC3)cc2)CC1 [Example 204]", "IC50": "3330 nM"}
{"compound": "N#CC1(NC(=O)[C@@H]2CCCC[C@H]2c2nc(-c3cnc(C(F)(F)F)nc3)sc2-c2ccc(N3CCS(=O)(=O)CC3)cc2)CC1 [Example 98]", "IC50": "1600 nM"}
{"compound": "CC(=O)N1CC(c2ccc(-c3sc(-c4ccc(F)cc4)nc3[C@@H]3CCCC[C@H]3C(=O)NC3(C#N)CC3)cc2)C1 [Example 151]", "IC50": "177 nM"}
{"compound": "C[C@@H](C#N)NC(=O)[C@@H]1C[C@@H](F)CC[C@H]1c1nc(CF)sc1-c1ccc(N2CCS(=O)(=O)CC2)cc1 [Example 237]", "IC50": "6830 nM"}

====

# target.or.test.system: human cathepsin F (Homo sapiens, UniProt Q9UBX1)
# Sequence (Q9UBX1 271-484): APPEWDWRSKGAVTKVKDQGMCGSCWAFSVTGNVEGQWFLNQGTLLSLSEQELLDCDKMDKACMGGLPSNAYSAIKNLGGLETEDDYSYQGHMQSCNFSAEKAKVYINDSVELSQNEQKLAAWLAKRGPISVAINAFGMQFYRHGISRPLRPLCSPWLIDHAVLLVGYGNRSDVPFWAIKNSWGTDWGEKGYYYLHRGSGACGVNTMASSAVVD
# assay.protocol: Cathepsin F assay (hCat F)
# Format: biochemical
# measurement.setup: Z-Phe-Arg-AMC substrate, pH 5.5, 15 min preincubation; read-out: hCat F (IP (nM))
This listing pairs molecules with measured IC50.

{"molecule": "N#CC1(NC(=O)[C@@H]2CCCC[C@H]2c2nc([C@@H]3CCOC3)sc2-c2ccc(N3CCS(=O)(=O)CC3)cc2)CC1", "operator": "=", "IC50 [nM]": 1000}
{"molecule": "CC(C)(O)C(C#N)NC(=O)[C@@H]1CCCC[C@H]1c1nc(-c2ccc(F)cn2)sc1-c1ccc(N2CCS(=O)(=O)CC2)cc1 (single isomer, unassigned)", "operator": "≥", "IC50 [nM]": 10000}
{"molecule": "N#CC1(NC(=O)[C@@H]2CC(F)(F)CC[C@H]2c2nc(CC(F)(F)F)sc2-c2ccc(N3CCS(=O)(=O)CC3)cc2)CC1", "operator": "=", "IC50 [nM]": 314}
{"molecule": "CC(Oc1ncccc1-c1nc([C@@H]2CCCC[C@H]2C(=O)NC2(C#N)CC2)c(-c2ccc(N3CCS(=O)(=O)CC3)cc2)s1)C(F)(F)F (mixture of isomers)", "operator": "=", "IC50 [nM]": 3330}
{"molecule": "COc1cncc(F)c1-c1nc([C@@H]2CCCC[C@H]2C(=O)NC2(C#N)CC2)c(-c2ccc(N3CCS(=O)(=O)CC3)cc2)s1", "operator": "=", "IC50 [nM]": 3080}
{"molecule": "N#CC1(NC(=O)[C@@H]2CCCC[C@H]2c2nc(C3(c4ccc(F)cc4)CC3)sc2-c2ccc(N3CCS(=O)(=O)CC3)cc2)CC1", "operator": "=", "IC50 [nM]": 1580}
{"molecule": "N#CC1(NC(=O)[C@@H]2CC3CC3C[C@H]2c2nc(-c3cncc(F)c3)sc2-c2ccc(N3CCS(=O)(=O)CC3)cc2)CC1 (single isomer, unassigned) [Compound 3]", "operator": "=", "IC50 [nM]": 225}
{"molecule": "Cc1ncc(-c2nc([C@@H]3CC[C@H](F)C[C@H]3C(=O)NC3(C#N)CC3)c(-c3ccc(N4CCS(=O)(=O)CC4)cc3)s2)s1", "operator": "≥", "IC50 [nM]": 10000}
{"molecule": "CC(C)(CO)c1nc([C@@H]2CCCC[C@H]2C(=O)NC2(C#N)CC2)c(-c2ccc(N3CCS(=O)(=O)CC3)cc2)s1", "operator": "≥", "IC50 [nM]": 10000}
{"molecule": "CC(C)(c1ccccc1)c1nc([C@@H]2CCCC[C@H]2C(=O)NC2(C#N)CC2)c(-c2ccc(N3CCS(=O)(=O)CC3)cc2)s1", "operator": "=", "IC50 [nM]": 1000}
{"molecule": "CS(=O)(=O)C1CN(c2ccc(-c3sc(-c4cncc(Cl)c4)nc3[C@@H]3CCCC[C@H]3C(=O)NC3(C#N)CC3)cc2)C1", "operator": "=", "IC50 [nM]": 1090}
{"molecule": "N#CC1(NC(=O)[C@@H]2C[C@@H](F)CC[C@H]2c2nc(-c3ccc(C(F)(F)F)nn3)sc2-c2ccc(N3CCS(=O)(=O)CC3)cc2)CC1", "operator": "≥", "IC50 [nM]": 10000}
{"molecule": "N#CC1(NC(=O)[C@@H]2CCCC[C@H]2c2nc(NCC(F)(F)F)sc2-c2ccc(N3CCS(=O)(=O)CC3)cc2)CC1", "operator": "≥", "IC50 [nM]": 10000}
{"molecule": "Cn1cc(-c2nc([C@@H]3CCCC[C@H]3C(=O)NC3(C#N)CC3)c(-c3ccc(N4CCS(=O)(=O)CC4)cc3)s2)ccc1=O", "operator": "=", "IC50 [nM]": 2770}
{"molecule": "N#CC1(NC(=O)[C@@H]2CCCC[C@H]2c2nc(-c3ccc(F)cc3)sc2-c2ccc(C3CN(C(=O)NCC(F)(F)F)C3)cc2)CC1", "operator": "=", "IC50 [nM]": 110}
{"molecule": "Cc1ncc(-c2nc([C@@H]3CCCC[C@H]3C(=O)NC3(C#N)CC3)c(-c3ccc(N4CCS(=O)(=O)CC4)cc3)s2)cn1", "operator": "=", "IC50 [nM]": 1870}
{"molecule": "CS(=O)(=O)c1ccc(-c2sc(-c3cccnc3)nc2[C@@H]2CCCC[C@H]2C(=O)NC2(C#N)CC2)cc1", "operator": "=", "IC50 [nM]": 1790}
{"molecule": "N#CC1(NC(=O)[C@@H]2CCCC[C@H]2c2nc(-c3ccc(C(F)(F)F)cn3)sc2-c2ccc(N3CCS(=O)(=O)CC3)cc2)CC1", "operator": "=", "IC50 [nM]": 1280}
{"molecule": "C[C@@H](C#N)NC(=O)[C@@H]1C[C@@H](F)CC[C@H]1c1nc(-c2ccc(F)cn2)sc1-c1ccc(N2CCS(=O)(=O)CC2)cc1 [Compound 8]", "operator": "=", "IC50 [nM]": 1100}
{"molecule": "N#CC1(NC(=O)[C@@H]2C[C@@H](F)CC[C@H]2c2nc(C(F)F)sc2-c2ccc(N3CCS(=O)(=O)CC3)cc2)CC1", "operator": "=", "IC50 [nM]": 4860}
{"molecule": "C[C@@H](C#N)NC(=O)[C@@H]1CCCC[C@H]1c1nc(C(O)C(F)(F)F)sc1-c1ccc(N2CCS(=O)(=O)CC2)cc1 (mixture of isomers)", "operator": "=", "IC50 [nM]": 757}
{"molecule": "N#CC1(NC(=O)[C@@H]2CCCC[C@H]2c2nc(C3CCS(=O)(=O)CC3)sc2-c2ccc(N3CCS(=O)(=O)CC3)cc2)CC1", "operator": "≥", "IC50 [nM]": 10000}
{"molecule": "N#CC1(NC(=O)[C@@H]2CCCC[C@H]2c2nc([C@@H]3CCCCO3)sc2-c2ccc(N3CCS(=O)(=O)CC3)cc2)CC1", "operator": "=", "IC50 [nM]": 7560}
{"molecule": "N#CC1(NC(=O)[C@@H]2CC(F)(F)CC[C@H]2c2nc(-c3ccc(F)cc3)sc2-c2ccc(N3CCS(=O)(=O)CC3)cc2)CC1", "operator": "=", "IC50 [nM]": 35}
